This collection of values is drawn from ChEMBL document CHEMBL1944505.

Each record here notes measured log10 of EC50.
tested on: Rhizoctonia solani; assay: Antifungal activity against Rhizoctonia solani by agar plate method; assay type: functional, organism-based
property name: log10 of EC50 (log10 of the value in µg/mL)

[[record]]
compound = "Cc1c(C(=O)N(C#N)Cc2ccccc2)ncn1Cc1ccccc1"
readout_value = 0.89

[[record]]
compound = "Cc1c(C(=O)N(C#N)Cc2ccc(F)cc2)ncn1Cc1ccc(F)cc1"
readout_value = 1.32

[[record]]
compound = "Cc1ccc(CN(C#N)C(=O)c2ncn(Cc3ccc(C)cc3)c2C)cc1"
readout_value = 1.20

[[record]]
compound = "Cc1ccc(Cn2cnc(C(=O)N(C#N)Cc3ccccc3Cl)c2C)cc1"
readout_value = 0.55

[[record]]
compound = "Cc1c(C(=O)N(C#N)Cc2ccc(F)cc2)ncn1Cc1cccc([N+](=O)[O-])c1"
readout_value = 0.56

[[record]]
compound = "CC(C)(C)C(=O)C(Oc1ccc(Cl)cc1)n1cncn1 (stereo unspecified)"
readout_value = 1.17

[[record]]
compound = "CCCCn1cnc(C(=O)N(C#N)Cc2ccccc2F)c1C"
readout_value = 1.12

[[record]]
compound = "Cc1ccc(Cn2cnc(C(=O)N(C#N)Cc3ccc(F)cc3)c2C)cc1"
readout_value = 0.48

[[record]]
compound = "CCCCN(C#N)C(=O)c1ncn(CCCC)c1C"
readout_value = 0.95

[[record]]
compound = "Cc1c(C(=O)N(C#N)Cc2ccccc2)ncn1Cc1ccc(F)cc1"
readout_value = 1.50

[[record]]
compound = "Cc1c(C(=O)N(C#N)Cc2ccccc2F)ncn1Cc1cccc([N+](=O)[O-])c1"
readout_value = 0.82

